# tested_target: T1, CRBN, Q96SW2;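 further: pooled lentiviral library of zinc finger degron-EGFP fusions in mCherry-positive Jurkat cells, FACS-sorted after compound exposure, with degron abundance counted by next-generation sequencing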
# T1 chain: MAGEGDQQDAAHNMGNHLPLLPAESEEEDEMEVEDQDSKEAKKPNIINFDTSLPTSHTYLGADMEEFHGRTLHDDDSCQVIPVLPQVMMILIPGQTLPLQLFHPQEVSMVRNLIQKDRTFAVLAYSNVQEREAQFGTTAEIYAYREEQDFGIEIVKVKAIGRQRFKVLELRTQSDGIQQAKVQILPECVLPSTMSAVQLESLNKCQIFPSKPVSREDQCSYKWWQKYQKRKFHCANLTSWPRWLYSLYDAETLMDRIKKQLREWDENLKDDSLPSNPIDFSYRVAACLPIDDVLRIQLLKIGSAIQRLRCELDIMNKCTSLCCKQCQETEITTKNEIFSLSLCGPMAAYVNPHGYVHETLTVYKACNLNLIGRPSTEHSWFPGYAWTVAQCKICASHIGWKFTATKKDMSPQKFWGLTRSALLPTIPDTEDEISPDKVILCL
# test_name: log2 fold change of degron read counts, EGFP-low vs EGFP+ sorted cells (limma voom), compound-induced degradation; higher = more compound-induced degradation of the degron-EGFP fusion; degrons are variants of IKZF1/3 zinc finger 2; compound dose not given here
# test_conditions: Jurkat; 18 h; compound: compound 22 (5-morpholino-thalidomide)
In all, about 8,300 sequences were measured (“log2 fold change of degron read counts, EGFP-low vs EGFP+ sorted cells (limma voom), compound-induced degradation”: median about -1.1, highest 2% from about 3.2 on). What follows is part of a selection rich in the highest values, with near analogues and random picks from the rest.
Give log2 fold change of degron read counts for every item shown.
Give bare numbers.

Worked cases, answers included:
sequence_input: FWCNICGAAFTQKGNLLRHIKL [46F_47W_49N_50I_52G_53A_54A_55F_67L_, Q9UKT9]
log2 fold change of degron read counts: 3.32
--
sequence_input: FGCEICGACFTQKGNLLRHIKL [46F_47G_49E_50I_52G_53A_54C_55F_67L_, Q9UKT9]
log2 fold change of degron read counts: 2.93
--
sequence_input: FDCEICGACFTQKGNLLRHIKL [46F_47D_49E_50I_52G_53A_54C_55F_67L_, Q9UKT9]
log2 fold change of degron read counts: -0.309
--
sequence_input: LVCPICGFYCTQKGNLLRHIKL [46L_47V_49P_50I_52G_53F_54Y_55C_67L_, Q9UKT9]
log2 fold change of degron read counts: 2.39
--
sequence_input: LFCPICGFSCTQKGNLLRHIKL [46L_47F_49P_50I_52G_53F_54S_55C_67L_, Q9UKT9]
log2 fold change of degron read counts: 3.56

For each of the sequences below, state log2 fold change of degron read counts.
1. FYCDICGAKFTQKGNLLRHIKL [46F_47Y_49D_50I_52G_53A_54K_55F_67L_, Q9UKT9]
2. FECEICGACFTQKGNLLRHIKL [46F_47E_49E_50I_52G_53A_54C_55F_67L_, Q9UKT9]
3. FTCEICGACFTQKGNLLRHIKL [46F_47T_49E_50I_52G_53A_54C_55F_67L_, Q9UKT9]
4. FNCEICGAFFTQKGNLLRHIKL [46F_47N_49E_50I_52G_53A_54F_55F_67L_, Q9UKT9]
5. FNCPQCGADFTQKGNLLRHIKL [46F_47N_49P_50Q_52G_53A_54D_55F_67L_, Q9UKT9]
6. LRCPICGFSCTQKGNLLRHIKL [46L_47R_49P_50I_52G_53F_54S_55C_67L_, Q9UKT9]

## Result
3.32
-1.14
2.36
-1.38
-3.57
1.9
